molecular target: Metabotropic glutamate receptor 5 (Rattus norvegicus) (UniProt P31424); experiment: Displacement of [3H]-M-MPEP from rat cerebrocortical mGluR5 receptor at 1 uM
Sequence (P31424 21-1203 limits assumed): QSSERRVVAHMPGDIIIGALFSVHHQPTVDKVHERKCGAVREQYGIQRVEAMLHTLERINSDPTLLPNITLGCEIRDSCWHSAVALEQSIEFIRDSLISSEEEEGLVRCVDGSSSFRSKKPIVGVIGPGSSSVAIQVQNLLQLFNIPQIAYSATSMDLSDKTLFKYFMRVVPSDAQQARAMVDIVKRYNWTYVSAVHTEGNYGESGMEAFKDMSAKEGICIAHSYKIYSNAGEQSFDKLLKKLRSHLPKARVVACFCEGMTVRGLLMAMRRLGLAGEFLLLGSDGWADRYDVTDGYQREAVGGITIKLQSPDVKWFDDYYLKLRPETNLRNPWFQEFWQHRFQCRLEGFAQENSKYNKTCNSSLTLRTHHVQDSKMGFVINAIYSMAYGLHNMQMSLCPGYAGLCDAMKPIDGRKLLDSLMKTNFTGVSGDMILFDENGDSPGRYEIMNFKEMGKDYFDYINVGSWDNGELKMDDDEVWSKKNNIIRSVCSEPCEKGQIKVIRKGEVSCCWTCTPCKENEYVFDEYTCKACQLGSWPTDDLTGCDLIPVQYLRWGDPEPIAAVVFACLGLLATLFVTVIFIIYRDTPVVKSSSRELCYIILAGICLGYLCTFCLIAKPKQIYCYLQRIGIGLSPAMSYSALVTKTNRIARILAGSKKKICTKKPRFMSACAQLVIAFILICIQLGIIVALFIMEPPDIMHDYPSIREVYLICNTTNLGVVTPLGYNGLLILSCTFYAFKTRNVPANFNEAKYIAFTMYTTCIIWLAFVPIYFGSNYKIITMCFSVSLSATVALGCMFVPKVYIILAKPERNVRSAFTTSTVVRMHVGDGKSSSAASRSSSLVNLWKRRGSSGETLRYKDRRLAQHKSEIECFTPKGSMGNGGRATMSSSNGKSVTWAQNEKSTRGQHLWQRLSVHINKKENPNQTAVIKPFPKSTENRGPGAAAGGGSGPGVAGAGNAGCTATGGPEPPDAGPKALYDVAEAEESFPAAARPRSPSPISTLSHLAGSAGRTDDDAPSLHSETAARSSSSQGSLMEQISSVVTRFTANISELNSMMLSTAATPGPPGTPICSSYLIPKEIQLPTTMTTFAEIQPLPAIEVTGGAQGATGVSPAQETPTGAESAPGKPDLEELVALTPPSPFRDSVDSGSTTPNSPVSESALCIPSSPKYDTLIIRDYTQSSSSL
Please use the following inhibition ranges when assigning a class: 0: < 10%; 1: ≥ 10% and < 30%; 2: ≥ 30%

Example results:
>>> qualitative_label("Cc1nc(C)c(S(=O)(=O)c2sc3ncccc3c2-c2ccc(Cl)cc2)s1")
2
>>> qualitative_label("N#Cc1ccc(-c2c(S(=O)(=O)c3cccc(C#N)c3)sc3ncccc23)cc1")
2
>>> qualitative_label("CC(=O)Nc1ccc(S(=O)(=O)c2sc3ncccc3c2-c2ccc(Cl)cc2)cc1")
0
>>> qualitative_label("Cc1cc(C)c(S(=O)(=O)c2sc3ncccc3c2-c2ccc(Cl)cc2)c(C)c1")
0
>>> qualitative_label("O=S(=O)(c1ccc(Cl)cc1)c1sc2nccc(O)c2c1-c1ccc(Cl)cc1")
2
>>> qualitative_label("N#Cc1cccc(S(=O)(=O)c2sc3nc(Cl)ccc3c2-c2ccc(Cl)cc2)c1")
1
>>> qualitative_label("CS(=O)(=O)c1ccc(-c2c(S(=O)(=O)c3ccc(Cl)cc3)sc3ncccc23)cc1")
1
>>> qualitative_label("O=S(=O)(c1ccc(Cl)cc1)c1sc2ncccc2c1Oc1ccc(Cl)cc1")
1

Categorize the following entry: COc1ccc2c(-c3ccc(Cl)cc3)c(S(=O)(=O)c3cccc(C#N)c3)sc2n1
2

Just checking, what class would you give O=S(=O)(Nc1ccc(Cl)cc1)c1sc2ncccc2c1-c1ccc(Cl)cc1 here?
1

Note: place this molecule into its band. Item: Cc1noc(C)c1S(=O)(=O)c1sc2ncccc2c1-c1ccc(Cl)cc1
0

Lab log: O=S(=O)(Cc1ccccc1)c1sc2ncccc2c1-c1ccc(Cl)cc1 — assign inhibition category
1

Entry COc1ccnc2sc(S(=O)(=O)c3ccc(Cl)cc3)c(-c3ccc(Cl)cc3)c12 belongs to which category?
1

Using the reported inhibition, which band applies to O=S(=O)(c1sc2ncccc2c1-c1ccc(Cl)cc1)C1CCCCC1 ?
1

Data credit: ChEMBL document CHEMBL3400086
